tested on: HOP-92 NSCLC; assay: NCI tumour cell line growth inhibition, 48 h
Response key: true means TGI >= 30 µM; false means TGI < 30 µM.

Known results for compounds:
NS(=O)(=O)c1ccc(NC(=O)c2cccn3c(=O)c4ccccc4nc23)cc1 ... true
O=C1CSC2(CC(/C=C/c3ccccc3Br)=NN2c2cccc(S(=O)(=O)O)c2)N1c1nc2ccccc2s1 (stereo unspecified) ... true
CC12OC(C(=O)C13CCC3)C1C(=O)c3ccccc3C(=O)C12 (stereo unspecified) ... true
NS(=O)(=O)c1cc(S(N)(=O)=O)c(NC(=O)N(c2ccccc2)c2ccccc2)c(Cl)c1Cl ... false
O=[N+]([O-])/C=C/c1cn(CCCCCn2cc(/C=C/[N+](=O)[O-])c3ccccc32)c2ccccc12 ... true

Next item in the queue.
Is the recorded value of TGI equal to or greater than 30 µM for this compound? NC(=O)c1cc(I)ccc1NC(=O)COc1ccccc1
false
